Tested on: P388 leukemia ip, CD2F1 mice, survival T/C
testDescription: NCI In Vivo Anticancer Drug Screen. Data for tumor model P388 Leukemia (intraperitoneal) in CD2F1 (CDF1) mice
conditionSummary: endpoint: median survival time; dose: 50.0 mg/kg/injection; schedule: Q01DX005 (ip); vehicle: saline with Tween-80; higher = longer survival
Toxic doses and inconclusive results are not listed.
For each entry below, report its T/C value.

Just so you know, measured T/C for COc1nc(N)nc2c1ncn2C1OC(CO)CC1O (configuration not stated) came out at 86 % of control

Just so you know, measured T/C for CCOC(=O)ON(C)C(=O)OCC came out at 102 % of control

Just so you know, measured T/C for CC1(O)C2CCCCC2C2CCCCC2C1(C)O (configuration not stated) came out at 101 % of control

Just so you know, measured T/C for N#C/C(C(N)=O)=C(\C(=O)c1ccccc1)c1ccccc1 came out at 99 % of control

Just so you know, measured T/C for COc1ccc(C(C)c2cc3c(cc2OC(C)=O)OCO3)cc1 (configuration not stated) came out at 100 % of control

Just so you know, measured T/C for O=[N+]([O-])c1ccc(Oc2c3ccccc3nc3ccccc23)cc1 came out at 90 % of control

Just so you know, measured T/C for O=C(O)c1cc(Cc2c[nH]c(=O)[nH]c2=O)ccc1O came out at 111 % of control
